src = patent US10385057B2

Target: MAGL (Mus musculus)
Construct: mouse brain membrane fraction or cell lysates for mouse assays; from tissue
Assay: In vitro competitive activity-based protein profiling, mouse MAGL
Type: biochemical
Details: 1 μM, read-out: MAGL % inh. 1 μM (mouse)
readout-label: inhibition at 1 µM

Below are worked cases with known answers.
molecule: O=C(c1cnn(C(=O)N2CCC3(CCN(Cc4cc(Cl)ccc4Cl)C3)C2)c1)N1CCN(C2CC2)CC1 (stereo not shown) [Example 30]
target: MAGL (Mus musculus)
inhibition at 1 µM: ≥ 75%
--
molecule: O=C(N1CC2CN(Cc3ccc(C(F)(F)F)cc3N3CCCC3)CC2C1)n1cc(Cl)cn1 (stereo not shown) [Example 110]
target: MAGL (Mus musculus)
inhibition at 1 µM: ≥ 75%
--
molecule: O=C(c1cnn(C(=O)N2CCC3(CCN(Cc4cccc(C(F)(F)F)c4)C3)C2)c1)N1CCOCC1 (stereo not shown) [Example 32]
target: MAGL (Mus musculus)
inhibition at 1 µM: 0 to 25%

// moving on: another record for inhibition at 1 µM
// returns reported inhibition at 1 µM for input O=C(N1CCC2(CCN(Cc3cccc(C(F)(F)F)c3)C2)C1)n1cc(C(F)(F)F)cn1 (stereo not shown) [Example 172]
≥ 75%

###

Molecular target: MAGL (Mus musculus, UniProt O35678)
Construct: mouse brain membrane fraction or cell lysates for mouse assays; from tissue
Test: In vitro competitive activity-based protein profiling, mouse MAGL
Format: biochemical
Settings: 1 μM, read-out: MAGL % inh. 1 μM (mouse)
readout-label: inhibition at 1 µM

Illustrative cases are given below, each with its answer.
compound: O=C(c1cnn(C(=O)N2CC3CN(Cc4cccc(Oc5ccc(Cl)cc5)c4)CC3C2)c1)N1CCCC1 (stereo not drawn)
target: MAGL (Mus musculus, UniProt O35678)
inhibition at 1 µM: 0 to 25%

compound: CN(Cc1ccccc1Cl)[C@@H]1C[C@@H]2CN(C(=O)n3cc(Cl)cn3)C[C@@H]2C1
target: MAGL (Mus musculus, UniProt O35678)
inhibition at 1 µM: ≥ 75%

compound: CN(Cc1ccc(C(F)(F)F)cc1)[C@H]1C[C@@H]2CN(C(=O)n3cc(Cl)cn3)C[C@@H]2C1
target: MAGL (Mus musculus, UniProt O35678)
inhibition at 1 µM: ≥ 75%

State the recorded inhibition at 1 µM for this entry: O=C(c1cnn(C(=O)N2CC3CN(Cc4cccc(Cl)c4)CC3C2)c1)N1CCCCC1 (stereo not drawn)
50 to 75%

Item CN(Cc1ccc(Oc2cccnc2)cc1)[C@H]1C[C@@H]2CN(C(=O)n3cc(Cl)cn3)C[C@@H]2C1 has what recorded inhibition at 1 µM?
≥ 75%

Record request: inhibition at 1 µM value, item CC(=O)N1CCN(c2cc(Cl)ccc2CN2CC3CN(C(=O)n4cc(Cl)cn4)CC3C2)CC1 (stereo not drawn)
≥ 75%

Sample CN(Cc1cc(C(F)(F)F)ccc1Cl)[C@@H]1C[C@@H]2CN(C(=O)n3cc(C(N)=O)cn3)C[C@@H]2C1 — what was its inhibition at 1 µM?
≥ 75%

Fill blank: measured inhibition at 1 µM of the compound O=C(O)c1cnn(C(=O)N2CC3CN(Cc4cccc(Oc5ccccc5)c4)CC3C2)c1 (stereo not drawn) is ____.
50 to 75%

Recorded inhibition at 1 µM for NC(=O)c1cnn(C(=O)N2CC3CN(Cc4ccc(Cl)cc4)CC3C2)c1 (stereo not drawn) , please?
≥ 75%

Return reported inhibition at 1 µM; argument: CNC(=O)c1cnn(C(=O)N2C[C@H]3C[C@@H](N(C)Cc4ccccc4C(F)(F)F)C[C@H]3C2)c1
50 to 75%

Find the recorded inhibition at 1 µM belonging to O=C(c1cnn(C(=O)N2CC3CN(Cc4ccc(N5CCOCC5)cc4C(F)(F)F)CC3C2)c1)N1CCN(C2CC2)CC1 (stereo not drawn) and report it.
≥ 75%

Which inhibition at 1 µM reading was recorded for the compound CNC(=O)c1cnn(C(=O)N2CCC3(CCN(Cc4cc(Cl)cc(C(F)(F)F)c4)C3)C2)c1 (stereo not drawn) ?
≥ 75%

So what's the measured inhibition at 1 µM for this one? NC(=O)c1cnn(C(=O)N2CCC3(CCN(Cc4cc(N5CCOCC5)ccc4C(F)(F)F)C3)C2)c1 (stereo not drawn)
≥ 75%

Value lookup for inhibition at 1 µM; key = O=C(N1CC2CN(Cc3ccc(C(F)(F)F)cc3)CC2C1)n1cc(Cl)cn1 (stereo not drawn)
≥ 75%

Recorded inhibition at 1 µM of O=C(N1CC2CN(Cc3ccc(Cl)c(Cl)c3)CC2C1)n1cc(Cl)cn1 (stereo not drawn) , please.
≥ 75%

Which inhibition at 1 µM reading was recorded for the compound CN(Cc1cccc(N2CCOCC2)c1)[C@@H]1C[C@@H]2CN(C(=O)n3cc(Cl)cn3)C[C@@H]2C1 ?
25 to 50%

###

Quick reference: inhibition at 1 µM of the listed items.
Target: FAAH (Mus musculus, UniProt O08914)
Construct: mouse brain membrane fraction or cell lysates for mouse assays; from tissue
Sequence (O08914 whole entry): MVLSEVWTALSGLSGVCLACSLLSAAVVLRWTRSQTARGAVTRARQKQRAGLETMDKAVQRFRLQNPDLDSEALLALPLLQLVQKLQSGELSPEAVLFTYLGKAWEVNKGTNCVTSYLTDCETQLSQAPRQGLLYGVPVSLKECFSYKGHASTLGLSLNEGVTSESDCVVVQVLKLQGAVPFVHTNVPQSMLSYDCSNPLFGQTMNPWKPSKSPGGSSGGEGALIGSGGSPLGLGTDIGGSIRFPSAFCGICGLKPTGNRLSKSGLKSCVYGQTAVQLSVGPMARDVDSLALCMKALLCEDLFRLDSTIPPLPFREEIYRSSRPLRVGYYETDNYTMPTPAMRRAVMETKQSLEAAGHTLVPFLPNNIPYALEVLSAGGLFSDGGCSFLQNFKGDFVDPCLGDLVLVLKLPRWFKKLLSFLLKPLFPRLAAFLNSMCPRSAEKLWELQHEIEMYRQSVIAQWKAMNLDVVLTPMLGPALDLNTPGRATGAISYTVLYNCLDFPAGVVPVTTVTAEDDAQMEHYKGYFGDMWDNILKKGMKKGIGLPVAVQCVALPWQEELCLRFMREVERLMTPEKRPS
Assay: In vitro competitive activity-based protein profiling, mouse FAAH
Format: biochemical
Conditions: 1 μM, read-out: FAAH % inh. 1 μM (mouse)
Experimental: In Vitro Competitive Activity-Based Protein Profiling. Proteomes (mouse brain membrane fraction or cell lysates for mouse assays; human prefrontal cortex or cell membrane fractions for human assays) (50 μL, 1.0 mg/mL total protein concentration) were preincubated with varying concentrations of inhibitors at 37° C. […] Following gel imaging, serine hydrolase activity was determined by measuring fluorescent intensity of gel bands corresponding to MAGL and FAAH using ImageJ 1.43u software.

compound: CN(Cc1cccc(Oc2ccccc2)c1)[C@H]1C[C@@H]2CN(C(=O)n3cc(C(=O)O)cn3)C[C@@H]2C1
readout-label: inhibition at 1 µM
endpoint-value: 50 to 75%
--
compound: O=C(N1CCC2(CCN(Cc3cccc(F)c3)C2)C1)n1cc(C(F)(F)F)cn1 (stereo not shown)
readout-label: inhibition at 1 µM
endpoint-value: ≥ 75%
--
compound: O=C(c1cnn(C(=O)N2CC3CN(Cc4cc(Cl)ccc4Cl)CC3C2)c1)N1CCCC1 (stereo not shown)
readout-label: inhibition at 1 µM
endpoint-value: ≥ 75%
--
compound: O=C(c1cnn(C(=O)N2CCC3(CCN(Cc4cc(Cl)cc(C(F)(F)F)c4)C3)C2)c1)N1CCCC1 (stereo not shown)
readout-label: inhibition at 1 µM
endpoint-value: ≥ 75%
--
compound: O=C(O)c1cnn(C(=O)N2CC3CN(Cc4cc(N5CCCC5)cc(C(F)(F)F)c4)CC3C2)c1 (stereo not shown)
readout-label: inhibition at 1 µM
endpoint-value: ≥ 75%

Using the record for O=C(O)c1cnn(C(=O)N2CC3CN(Cc4ccc(N5CCCC5)cc4C(F)(F)F)CC3C2)c1 (stereo not shown) , report its inhibition at 1 µM.
≥ 75%

Given the compound O=C(N1CC2CN(Cc3cccc(Oc4ccccc4)c3)CC2C1)n1cc(Cl)cn1 (stereo not shown) , what is its reported inhibition at 1 µM?
≥ 75%

Which inhibition at 1 µM value is on record for O=C(c1cnn(C(=O)N2CCC3(CCN(Cc4cc(Cl)cc(C(F)(F)F)c4)C3)C2)c1)N1CCOCC1 (stereo not shown) ?
25 to 50%

For CN(Cc1ccc(Oc2cccnc2)cc1)[C@H]1C[C@@H]2CN(C(=O)n3cc(Cl)cn3)C[C@@H]2C1 , what is its reported inhibition at 1 µM?
≥ 75%

Entry under review: O=C(N1CC2CN(Cc3ccccc3N3CCOCC3)CC2C1)n1cc(C(F)(F)F)cn1 (stereo not shown) . Reported inhibition at 1 µM?
≥ 75%

###

Molecular target: MAGL (Mus musculus)
Construct: mouse brain membrane fraction or cell lysates for mouse assays; from tissue
Sequence (O35678 1-303): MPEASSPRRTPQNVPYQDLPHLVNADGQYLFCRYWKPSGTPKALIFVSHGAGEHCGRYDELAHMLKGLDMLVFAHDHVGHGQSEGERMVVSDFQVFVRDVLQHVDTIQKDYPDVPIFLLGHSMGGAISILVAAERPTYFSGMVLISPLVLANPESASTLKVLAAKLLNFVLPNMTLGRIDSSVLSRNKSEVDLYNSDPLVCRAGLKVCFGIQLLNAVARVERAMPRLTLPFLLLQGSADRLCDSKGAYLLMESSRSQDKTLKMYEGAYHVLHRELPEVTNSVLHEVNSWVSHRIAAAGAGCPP
Experiment: In vitro competitive activity-based protein profiling, mouse MAGL
Assay type: biochemical
Conditions: 1 μM, read-out: MAGL % inh. 1 μM (mouse)
inhibition at 1 µM reference

molecule: O=C(N1CC2CN(Cc3ccccc3N3CCOCC3)CC2C1)n1cc(C(F)(F)F)cn1 (stereo not shown)
inhibition at 1 µM: ≥ 75%

molecule: O=C(c1cnn(C(=O)N2CC3CN(Cc4ccc(Oc5ccc(Cl)cc5)cc4)CC3C2)c1)N1CCOCC1 (stereo not shown)
inhibition at 1 µM: 0 to 25%

molecule: O=C(c1cnn(C(=O)N2CC3CN(Cc4ccccc4Cl)CC3C2)c1)N1CCCCC1 (stereo not shown)
inhibition at 1 µM: 25 to 50%

molecule: NC(=O)c1cnn(C(=O)N2CCC3(CCN(Cc4cccc(C(F)(F)F)c4)C3)C2)c1 (stereo not shown)
inhibition at 1 µM: ≥ 75%

molecule: O=C(N1C[C@H]2C[C@H](NCc3cccc(Cl)c3)C[C@H]2C1)n1cc(Cl)cn1
inhibition at 1 µM: ≥ 75%

Would you mind telling me what inhibition at 1 µM value was observed for CNC(=O)c1cnn(C(=O)N2CCC3(CCN(Cc4cc(Cl)ccc4Cl)C3)C2)c1 (stereo not shown) ?
≥ 75%

What value of inhibition at 1 µM has been recorded for this entry: O=C(c1cnn(C(=O)N2CC3CN(Cc4ccc(Oc5ccc(Cl)cc5)cc4)CC3C2)c1)N1CCCC1 (stereo not shown)
50 to 75%
